- ASSAY_TARGET: Bovine cardiac myosin (Bos taurus (Bovine))
- Sequence (Q9BE39 whole entry): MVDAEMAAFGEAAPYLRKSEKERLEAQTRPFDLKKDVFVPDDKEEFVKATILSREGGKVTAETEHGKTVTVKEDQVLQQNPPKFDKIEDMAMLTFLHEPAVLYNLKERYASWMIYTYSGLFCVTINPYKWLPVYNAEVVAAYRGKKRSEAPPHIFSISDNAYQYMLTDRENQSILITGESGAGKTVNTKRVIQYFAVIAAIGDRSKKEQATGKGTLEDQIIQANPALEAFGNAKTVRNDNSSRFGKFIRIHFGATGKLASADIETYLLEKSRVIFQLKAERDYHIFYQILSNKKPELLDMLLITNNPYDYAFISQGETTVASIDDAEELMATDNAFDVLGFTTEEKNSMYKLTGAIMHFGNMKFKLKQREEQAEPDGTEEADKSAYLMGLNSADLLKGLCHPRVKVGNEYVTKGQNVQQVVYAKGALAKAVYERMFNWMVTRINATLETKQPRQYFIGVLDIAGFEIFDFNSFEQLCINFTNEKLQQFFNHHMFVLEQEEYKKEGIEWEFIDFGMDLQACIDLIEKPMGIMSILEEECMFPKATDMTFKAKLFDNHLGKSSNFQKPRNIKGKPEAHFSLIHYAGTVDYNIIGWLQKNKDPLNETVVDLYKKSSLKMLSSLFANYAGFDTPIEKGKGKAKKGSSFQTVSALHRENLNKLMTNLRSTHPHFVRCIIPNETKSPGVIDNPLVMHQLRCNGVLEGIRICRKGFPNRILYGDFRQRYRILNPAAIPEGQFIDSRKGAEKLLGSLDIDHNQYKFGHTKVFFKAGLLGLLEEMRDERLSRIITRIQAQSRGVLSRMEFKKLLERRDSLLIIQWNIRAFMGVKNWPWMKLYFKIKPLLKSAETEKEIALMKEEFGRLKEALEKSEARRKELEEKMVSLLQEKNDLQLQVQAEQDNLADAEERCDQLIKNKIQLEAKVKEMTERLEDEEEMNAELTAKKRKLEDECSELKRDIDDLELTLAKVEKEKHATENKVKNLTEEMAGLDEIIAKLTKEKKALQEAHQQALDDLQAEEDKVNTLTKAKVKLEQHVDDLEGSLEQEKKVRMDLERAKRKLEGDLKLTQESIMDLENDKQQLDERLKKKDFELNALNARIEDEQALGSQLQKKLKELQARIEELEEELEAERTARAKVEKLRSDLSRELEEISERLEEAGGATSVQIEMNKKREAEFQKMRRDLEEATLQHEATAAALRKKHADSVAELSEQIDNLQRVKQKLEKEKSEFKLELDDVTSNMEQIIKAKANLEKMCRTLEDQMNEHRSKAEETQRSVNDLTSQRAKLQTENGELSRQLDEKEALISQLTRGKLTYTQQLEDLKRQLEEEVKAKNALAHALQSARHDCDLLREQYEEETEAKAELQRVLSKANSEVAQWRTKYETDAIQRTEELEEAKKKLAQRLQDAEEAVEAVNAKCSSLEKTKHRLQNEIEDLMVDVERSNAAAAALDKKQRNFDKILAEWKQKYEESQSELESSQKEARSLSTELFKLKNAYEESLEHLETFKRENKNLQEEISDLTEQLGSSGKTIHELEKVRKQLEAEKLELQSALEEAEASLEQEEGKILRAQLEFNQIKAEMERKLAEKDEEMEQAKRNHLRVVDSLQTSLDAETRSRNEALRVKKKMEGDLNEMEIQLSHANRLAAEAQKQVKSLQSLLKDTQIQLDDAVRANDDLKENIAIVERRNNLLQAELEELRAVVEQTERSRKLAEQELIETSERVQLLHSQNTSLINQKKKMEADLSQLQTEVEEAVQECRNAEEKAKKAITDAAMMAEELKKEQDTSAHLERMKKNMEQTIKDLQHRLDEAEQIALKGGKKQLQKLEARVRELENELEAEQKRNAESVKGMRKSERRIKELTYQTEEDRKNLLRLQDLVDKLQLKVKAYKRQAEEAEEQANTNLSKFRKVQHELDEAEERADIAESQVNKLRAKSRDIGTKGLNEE
- Sequence (P85100 whole entry partner): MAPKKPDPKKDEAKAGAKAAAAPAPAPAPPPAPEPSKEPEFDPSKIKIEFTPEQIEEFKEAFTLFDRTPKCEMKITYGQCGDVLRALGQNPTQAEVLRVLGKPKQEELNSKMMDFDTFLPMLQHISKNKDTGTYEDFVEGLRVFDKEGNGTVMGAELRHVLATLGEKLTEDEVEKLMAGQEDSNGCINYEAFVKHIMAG
- Sequence (Q3SZE5 whole entry partner): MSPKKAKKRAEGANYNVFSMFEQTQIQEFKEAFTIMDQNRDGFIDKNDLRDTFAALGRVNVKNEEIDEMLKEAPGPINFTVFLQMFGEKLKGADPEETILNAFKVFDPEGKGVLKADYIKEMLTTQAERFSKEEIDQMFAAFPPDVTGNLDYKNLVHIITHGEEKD
- EXPERIMENT_SUMMARY: Cardiac muscle myosin II actin-activated ATPase assay (NADH-coupled)
- Assay type: biochemical
- Set-up: key: NMII-sel: no Ki value for cardiac myosin II could be determined; the compounds had no detectable inhibitory properties versus the cardiac myosin II
- CONDITION_SET: cardiac myosin II Ki over nonmuscle myosin II EC50
- Experimental: The cardiac muscle myosin II actin-activated ATPase assay is a biochemical assay. Specifically, it is an NADH (nicotinamide adenine dinucleotide)-coupled ATPase assay that relies on NADH fluorescence as a readout. […] NADH fluorescence is monitored for 30 minutes with an EnVision Multimode Plate Reader. The slope of the fluorescence response, which is proportional to the reaction rate, is determined by simple linear regression. […]
MEASUREMENT_LABEL: Ratio CMMII:NMII Ki/EC50

Completed entries (count: 4):
O=C1c2cc(Cl)ccc2N=C2N(c3ccc4sccc4c3)CC[C@@]12O = NMII-sel
Cc1ccc(N2CC[C@@]3(O)C(=O)c4cc(F)c(C)cc4N=C23)cc1 = 5.0
Cc1ccc(N2CC[C@@]3(O)C(=O)c4cc(C)c(C(F)(F)F)cc4N=C23)cc1Cl = NMII-sel
COc1cccc(N2CC[C@@]3(O)C(=O)c4cc(C)c(C)cc4N=C23)c1 [BPN-0026497] = 15.7

Sure, the documented Ratio CMMII:NMII Ki/EC50 for Cc1ccc2cc(N3CC[C@@]4(O)C(=O)c5cc(C)sc5N=C34)ccc2n1 is 31.7

The compound identified as Cc1cc2c(cc1F)C(=O)[C@]1(O)CCN(c3cccs3)C1=N2 registered its Ratio CMMII:NMII Ki/EC50 at 4.7
